Data origin: patent US20240180900A1

- EXPERIMENT NOTES: preliminary PK in mCRPC participants (Phase 1/2)
- Assay type: in vivo, human
- CONDITION INFO: male, human, plasma, oral, 480 mg, 480 mg QD, Mean (CV %); read-out: Cmax Day 1
ENDPOINT LABEL: Cmax (ng/mL)
Write the answer as a number in ng/mL, unit excluded.

The reported value for COc1cc(O[C@H]2C(C)(C)[C@H](NC(=O)c3ccc(N4CCC(CN5CCN(c6ccc(C(=O)N[C@H]7CCC(=O)NC7=O)c(F)c6)CC5)CC4)cc3)C2(C)C)ccc1C#N [Compound A] in terms of Cmax is 145

---

- EXPERIMENT NOTES: food/PPI effect on single-dose PK in healthy volunteers (phase 1)
- Type: in vivo, human
- CONDITION INFO: male, human, plasma, oral, 200 mg, Fasted; read-out: Vz/F, Geometric Mean (Geometric CV %)
ENDPOINT LABEL: Vd/F (L)
Write the answer as a number in L, unit excluded.

The reported value for COc1cc(O[C@H]2C(C)(C)[C@H](NC(=O)c3ccc(N4CCC(CN5CCN(c6ccc(C(=O)N[C@H]7CCC(=O)NC7=O)c(F)c6)CC5)CC4)cc3)C2(C)C)ccc1C#N in terms of Vd/F is 5450

---

- EXPERIMENT NOTES: food/PPI effect on single-dose PK in healthy volunteers (phase 1)
- Format: in vivo, human
- CONDITION INFO: male, human, plasma, oral, 200 mg, Fasted; read-out: AUCinf-Obs, Geometric Mean (Geometric CV %)
ENDPOINT LABEL: AUC(0-inf) (ng·h/mL)
Write the answer as a number in ng·h/mL, unit excluded.

The reported value for COc1cc(O[C@H]2C(C)(C)[C@H](NC(=O)c3ccc(N4CCC(CN5CCN(c6ccc(C(=O)N[C@H]7CCC(=O)NC7=O)c(F)c6)CC5)CC4)cc3)C2(C)C)ccc1C#N in terms of AUC(0-inf) is 3460

---

- EXPERIMENT NOTES: preliminary PK in mCRPC participants (Phase 1/2)
- Format: in vivo, human
- CONDITION INFO: male, human, plasma, oral, 160 mg, 160 mg QD, Mean (CV %); read-out: Cmax Day 21
ENDPOINT LABEL: Cmax (ng/mL)
Write the answer as a number in ng/mL, unit excluded.

The reported value for COc1cc(O[C@H]2C(C)(C)[C@H](NC(=O)c3ccc(N4CCC(CN5CCN(c6ccc(C(=O)N[C@H]7CCC(=O)NC7=O)c(F)c6)CC5)CC4)cc3)C2(C)C)ccc1C#N in terms of Cmax is 445

---

- EXPERIMENT NOTES: preliminary PK in mCRPC participants (Phase 1/2)
- Format: in vivo, human
- CONDITION INFO: human, plasma, oral, 40 mg, 40 mg QD, individual value (n = 1); read-out: AUC0-24 Day 21
ENDPOINT LABEL: AUC(0-t) (ng·h/mL)
Write the answer as a number in ng·h/mL, unit excluded.

The reported value for COc1cc(O[C@H]2C(C)(C)[C@H](NC(=O)c3ccc(N4CCC(CN5CCN(c6ccc(C(=O)N[C@H]7CCC(=O)NC7=O)c(F)c6)CC5)CC4)cc3)C2(C)C)ccc1C#N [Compound A] in terms of AUC(0-t) is 1300
